Kd overview
- system_tested: T1, human TREM2 Fc fusion (entire TREM2 ECD; only one Fc arm fused to TREM2) (human, UniProt Q9NZC2 19-174)
- T1 construct: also called huTREM2-Fc; recombinant hTREM2
- T1 sequence: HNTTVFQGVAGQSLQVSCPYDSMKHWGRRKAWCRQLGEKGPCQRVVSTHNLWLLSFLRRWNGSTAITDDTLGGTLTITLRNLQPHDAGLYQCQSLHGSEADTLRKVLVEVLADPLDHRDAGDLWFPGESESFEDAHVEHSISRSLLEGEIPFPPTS
- experimental_details: BLI, Fab, monovalent
Write it as a number; the unit nM goes unstated.

Use these answered entries as a reference point.
binder	parameter	quantity_unit	readout_number
AL2p-27 (antibody, V domains shown, Fab and IgG formats under one id) VH: QVQLVQSGAEVKKPGSSVKVSCKASGYAFSSHWMNWVRQAPGQGLEWMGRIYPGQGDTNYAQKFQGRVTITADESTSTAYMELSSLRSEDTAVYYCARLLRNQPGESYAMDYWGQGTLVTVSS VL: GVVMTQTPLSLSVTPGQPASISCRSSRSLVHSNGYTYLHWYLQKPGQSPQLLIYKVSNRVSGVPDRFSGSGSGTDFTLKISRVEAEDVGVYYCSQSTRVPYTFGQGTKLEIK	Kd	nM	1.99
AL2p-48 (antibody, V domains shown, Fab and IgG formats under one id) VH: QVQLVQSGAEVKKPGSSVKVSCKASGYAFSSDWMNWVRQAPGQGLEWMGRIYPGEGDTNYARKFHGRVTITADESTSTAYMELSSLRSEDTAVYYCARLLRNKPGESYAMDYWGQGTLVTVSS VL: DVVMTQTPLSLSVTPGQPASISCRTSQSLVHSNQYTYLHWYLQKPGQSPQLLIYKVSNRVSGVPDRFSGSGSGTDFTLKISRVEAEDVGVYYCSQSTRVPYTFGQGTKLEIK	Kd	nM	11.2
AL2p-35 (antibody, V domains shown, Fab and IgG formats under one id) VH: QVQLVQSGAEVKKPGASVKVSCKASGYAFWSSWMNWVRQAPGQRLEWIGRIYPGDGDTNYAQKFQGRVTITADTSASTAYMELSSLRSEDTAVYYCARLLRNQPGESYAHDYWGQGTLVTVSS VL: DVVMTQSPDSLAVSLGERATINCRSSQSLVHSNGYTYLHWYQQKPGQSPKLLIYKVSNRFSGVPDRFSGSGSGTDFTLTISSLQAEDVAVYYCSQSTRVPYTFGGGTKVEIK	Kd	nM	28.4
AL2p-50 (antibody, V domains shown, Fab and IgG formats under one id) VH: QVQLVQSGAEVKKPGSSVKVSCKASGYAFSSHWMNWVRQAPGQGLEWMGRIYPGEGDTNYAQKFHGRVTITADESTSTAYMELSSLRSEDTAVYYCARLLRNQPGESYAMDYWGQGTLVTVSS VL: DVVMTQTPLSLSVTPGQPASISCRTSQSLVHSNAYTYLHWYLQKPGQSPQLLIYKVSNRVSGVPDRFSGSGSGTDFTLKISRVEAEDVGVYYCSQSTRVPYTFGQGTKLEIK	Kd	nM	23.9

# context switch: different binder, same Kd
Task item: Quick one: Kd for AL2p-54 (antibody, V domains shown, Fab and IgG formats under one id) VH: QVQLVQSGAEVKKPGSSVKVSCKASGYAFSSHWMNWVRQAPGQGLEWMGRIYPGEGDTNYAQKFHGRVTITADESTSTAYMELSSLRSEDTAVYYCARLLRNKPGESYAMDYWGQGTLVTVSS VL: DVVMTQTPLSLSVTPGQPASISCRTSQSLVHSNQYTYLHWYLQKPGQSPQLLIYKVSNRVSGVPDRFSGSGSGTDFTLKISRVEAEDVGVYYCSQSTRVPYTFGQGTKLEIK ?
Reply: 13.9
